Overview of recorded Kd for various binders
Biological target: T1, human BCMA with a His tag (ACROBiosystems, Catalog No.: BCA-H522y) (human)
T1 construct: Bought His-tagged recombinant protein; also called huBCMA-His; Recombinant human BCMA
T1 chain: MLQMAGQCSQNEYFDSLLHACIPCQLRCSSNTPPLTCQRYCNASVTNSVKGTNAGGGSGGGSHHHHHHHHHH
Test: SPR, Biacore T200

binder	Kd (nM)
SCT-Aa08(m/m) (antibody, V domains shown, Full IgG format: mouse IgG1 heavy chain constant region, mouse kappa light chain constant region) VH: QVQLQQSDAELVKPGASVKISCKVSGYTFIDHTIHWMKQRPEQGLEWIGYIYPRIDSSKCNEKFKDKATLTADKSSNTAYIQLNSLTSEDSAVYFCARWDYEGFDYWGQGTTLTVSS VL: DIVMTQSPATLSVTPGDRVSLSCRASQSISDYLHWYQQKSHESPRLLIKYASQSISGIPSRFSGSGSGSDFTLSINSVEPEDVGVYYCQNGHSFPPTFGSGTKLEIK	15.7
SCT-Aa10(m/m) (antibody, V domains shown, Full IgG format: mouse IgG1 heavy chain constant region, mouse kappa light chain constant region) VH: QVQLQQSDAELVKPGASVKISCKVSGYTFTDHTIHWMKQRPEQGLEWIGYIFPRDGNTKYNEKFKGKATMTADKSSSTAYMQLNSLTSEDSAVYFCARWDYEGFDCWGQGTTLTVSS VL: DIVMTQSPATLSVTPGDRVSLSCRASQSISDYLHWYQQKSHESPRLLIKYASQSISGIPSRFSGSGSGSDFTLSINSVEPEDVGVYFCQNGHSFPPTFGSGTKLEIK	9.56
